Target: HDAC6 human recombinant (Homo sapiens, UniProt Q9UBN7)
Sequence (Q9UBN7 whole entry): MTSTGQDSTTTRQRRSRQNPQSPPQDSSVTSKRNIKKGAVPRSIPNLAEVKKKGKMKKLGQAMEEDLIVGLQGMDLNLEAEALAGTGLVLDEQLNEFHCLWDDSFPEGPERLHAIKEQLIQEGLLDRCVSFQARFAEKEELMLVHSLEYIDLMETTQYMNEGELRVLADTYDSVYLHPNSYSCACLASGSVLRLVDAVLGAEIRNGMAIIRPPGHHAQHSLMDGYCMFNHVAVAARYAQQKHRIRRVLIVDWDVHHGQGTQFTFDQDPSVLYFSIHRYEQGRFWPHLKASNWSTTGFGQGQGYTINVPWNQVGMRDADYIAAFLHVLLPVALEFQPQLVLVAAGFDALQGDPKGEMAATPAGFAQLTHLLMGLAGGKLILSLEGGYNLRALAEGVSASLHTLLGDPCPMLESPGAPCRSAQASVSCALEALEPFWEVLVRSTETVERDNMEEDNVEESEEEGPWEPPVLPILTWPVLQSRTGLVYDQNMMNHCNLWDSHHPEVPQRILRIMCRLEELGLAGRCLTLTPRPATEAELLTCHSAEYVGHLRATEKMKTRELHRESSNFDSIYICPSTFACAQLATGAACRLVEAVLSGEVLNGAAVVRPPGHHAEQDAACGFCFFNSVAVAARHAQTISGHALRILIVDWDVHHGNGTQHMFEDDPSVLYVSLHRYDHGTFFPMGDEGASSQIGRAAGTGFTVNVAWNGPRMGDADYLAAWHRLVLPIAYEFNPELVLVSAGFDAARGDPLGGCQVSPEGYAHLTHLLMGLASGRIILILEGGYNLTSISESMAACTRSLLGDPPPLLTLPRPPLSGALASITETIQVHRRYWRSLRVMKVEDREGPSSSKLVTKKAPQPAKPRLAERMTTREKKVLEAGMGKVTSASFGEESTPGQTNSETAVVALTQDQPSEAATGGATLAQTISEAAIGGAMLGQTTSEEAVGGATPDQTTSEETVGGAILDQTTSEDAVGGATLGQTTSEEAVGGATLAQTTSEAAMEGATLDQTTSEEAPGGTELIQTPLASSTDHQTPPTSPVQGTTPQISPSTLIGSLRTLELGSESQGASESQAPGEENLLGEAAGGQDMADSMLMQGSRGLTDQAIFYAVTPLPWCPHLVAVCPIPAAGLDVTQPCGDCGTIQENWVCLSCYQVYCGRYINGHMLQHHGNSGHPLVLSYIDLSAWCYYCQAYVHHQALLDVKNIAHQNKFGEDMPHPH
Assay: HDAC enzyme activity inhibition (in vitro), fluorimetric HDAC6 assay
Conditions: samples at 0.1, 1, 10, 100 and 1000 nM, 37° C. 60 minutes, fluorescence Ex 390, Em 460
Classify: T when IC50 is strictly less than 300 nM; F when IC50 is not.

Take a look at these entries with their results.
molecule	label_class
O=C(Cn1ccc(-c2nnc(C(F)F)o2)cc1=O)c1ccc([N+](=O)[O-])cc1	T
O=C(C(Cn1ccc(-c2nnc(C(F)F)o2)cc1=O)c1ccccc1)N1CCS(=O)(=O)CC1 (stereo not drawn)	F

Query: # strict comparison: is reported IC50 < 300 nM? input = `O=C(Cn1ccc(-c2nnc(C(F)F)o2)cc1=O)c1coc2ccccc12`
Result: T

Query: I wonder whether `O=c1cc(-c2nnc(C(F)F)o2)ccn1Cc1ccccc1Cl` has IC50 below 300 nM. Can you tell?
Result: F

Query: Please let me know if `O=c1cc(-c2nnc(C(F)F)o2)ccn1Cc1noc(C(F)(F)F)n1` shows IC50 below 300 nM.
Result: T

Query: Quick check: does `O=c1cc(-c2nnc(C(F)(F)F)o2)ccn1Cc1cccc(F)c1` have IC50 under 300 nM?
Result: F

Query: Hello, I'm reviewing records and need to know if IC50 of `O=C(Cn1ccc(-c2nnc(C(F)F)o2)cc1=O)c1ccc(Cl)c(Cl)c1` is below 300 nM. Could you check?
Result: F

Query: API: query returns whether the molecule falls strictly under 300 nM in IC50. Query: `O=C(Cn1ccc(-c2nnc(C(F)F)o2)cc1=O)c1ccccc1`
Result: T

Query: Does `CCC(CC)Cn1ccc(-c2nnc(C(F)F)o2)cc1=O` have IC50 strictly under 300 nM?
Result: F

Query: Criterion: IC50 strictly below 300 nM. Is it met by `COc1ccc(OC)c(C(=O)Cn2ccc(-c3nnc(C(F)F)o3)cc2=O)c1` ?
Result: T

Query: hey, is IC50 for `O=c1cc(-c2nnc(C(F)F)o2)ccn1Cc1cc(F)ccc1F` lower than 300 nM or not?
Result: T

Query: For `O=C(N[C@@H](Cn1ccc(-c2nnc(C(F)F)o2)cc1=O)c1ccccc1)N1CCS(=O)(=O)CC1` , is the recorded IC50 below the cut-off of 300 nM?
Result: F

Query: hey, is IC50 for `O=c1cc(-c2nnc(C(F)(F)F)o2)ccn1Cc1cc(F)ccc1F` lower than 300 nM or not?
Result: F

Query: Lab note: confirm whether the reported IC50 for this molecule is below 300 nM, equality not counting. molecule: `CC(C)=CCn1ccc(-c2nnc(C(F)(F)F)o2)cc1=O`
Result: F

Query: Field: below-cutoff. Rule: recorded IC50 strictly less than 300 nM. Subject: `CC(C)=CCn1ccc(-c2nnc(C(F)F)o2)cc1=O`
Result: F
